A collection of compounds and their measured EC50
Test system: Klotho gene expression
method.notes: Luciferase reporter assay to evaluate Klotho gene expression changes
Assay type: cell-based
settings: Homo sapiens, HEK293, HEK293 cells/pKlotho_Luc, overnight incubation, luciferase luminescence
Report only the number, with the unit nM understood.

Solved cases below.
# structure.notation, EC50 / nM
measured = [
    ("Cc1csc2ncnc(NCCC3=CCCCCC3)c12", 210),
    ("c1nc(NCC2CCC2)c2ncn(C3CC3)c2n1", 830),
]

[Q] # return EC50 of Nc1c(NCCC2=CCCCCC2)ncnc1-n1cccn1 (system: Klotho gene expression)
[A] 200

[Q] # return EC50 of CC(C)CNc1ncnc2c1ncn2C1CC1 (system: Klotho gene expression)
[A] 1500

====

System: Klotho gene expression
method.notes: Luciferase reporter assay to evaluate Klotho gene expression changes
Assay type: cell-based
settings: HEK293 cells/pKlotho_Luc, overnight incubation, luciferase luminescence
A collection of molecules and their measured Activation, %
Report only the number, with the unit % understood.

Solved cases below.
# molecule, scale.unit, assay.result
records = [
    ("C1=C(CCNc2ncnc3scnc23)CCCC1", "%", 103),
    ("C1=C(CCNc2ncnc3sccc23)CCCC1", "%", 133),
]

[Q] State, in one line, measured Activation, % of c1nc(NCC23CCC(CC2)CC3)c2ncn(C3CC3)c2n1
[A] 86

[Q] State, in one line, measured Activation, % of CN(CCC1CCCCC1)c1ncnc2c1ncn2C1CC1
[A] 114

[Q] State, in one line, measured Activation, % of FC1(CNc2ncnc3c2ncn3C2CC2)CCCCC1
[A] 86

[Q] State, in one line, measured Activation, % of Cc1cc2c(NCCC3=CCCCC3)ncnc2s1
[A] 133

[Q] State, in one line, measured Activation, % of C1=CCC(CCNc2ncnc3c2ncn3C2CC2)CC1 (centres unmarked)
[A] 152

====

Test system: Klotho gene expression
method.notes: Luciferase reporter assay to evaluate Klotho gene expression changes
Format: cell-based
settings: Homo sapiens, HEK293, HEK293 cells/pKlotho_Luc, overnight incubation, luciferase luminescence
pEC50: −log10 of the molar value.
Respond with YES for pEC50 values of 6 and above, NO for values below.

# compound, group.label
records = [
    ("Clc1ccc(CNc2ncnc3c2ncn3C2CC2)cc1Cl [Compound 43]", "NO"),
    ("CC1(CNc2ncnc3c2ncn3C2CC2)CCCC1 [Compound 40]", "NO"),
    ("Fc1cccc2ncnc(NCCC3=CCCCC3)c12 [Compound 13]", "YES"),
    ("Nc1c(NCCC2=CCCCC2)ncnc1-n1cccn1 [Compound 11]", "YES"),
    ("Cc1cc2c(NCCC3=CCCCCC3)ncnc2s1 [Compound 18]", "YES"),
    ("CN(CCC1CCCCC1)c1ncnc2c1ncn2C1CC1 [Compound 17]", "YES"),
    ("N#CCCn1ncc2c(NCCC3=CCCCCC3)ncnc21 [Compound 14]", "YES"),
    ("C1=CCC(CNc2ncnc3c2ncn3C2CC2)CC1 (centres unmarked) [Compound 1]", "YES"),
]

[Q] Given C1=C(CCNc2cc(N3CCCC3)ncn2)CCCC1 [Compound 3] , state whether its pEC50 is at least 6.
[A] YES

[Q] Given C1=C(CCNc2ncnc3[nH]ccc23)CCCC1 [Compound 7] , state whether its pEC50 is at least 6.
[A] YES

[Q] Given CC1(C)CCC(CNc2ncnc3c2ncn3C2CC2)CC1 [Compound 45] , state whether its pEC50 is at least 6.
[A] NO

[Q] Given Cc1csc2ncnc(NCCC3=CCCCC3)c12 [Compound 8] , state whether its pEC50 is at least 6.
[A] YES

[Q] Given CCn1ncc2c(NCCC3=CCCCC3)ncnc21 [Compound 16] , state whether its pEC50 is at least 6.
[A] YES

[Q] Given c1nc(NCC23CCC(CC2)CC3)c2ncn(C3CC3)c2n1 [Compound 46] , state whether its pEC50 is at least 6.
[A] NO

[Q] Given c1ccc([C@@H]2C[C@H]2Nc2ncnc3c2ncn3C2CC2)cc1 [Compound 41] , state whether its pEC50 is at least 6.
[A] NO

[Q] Given CC1(CNc2ncnc3c2ncn3C2CC2)CCCCC1 [Compound 39] , state whether its pEC50 is at least 6.
[A] NO

[Q] Given C1=C(CCNc2cc(N3CCCCC3)ncn2)CCCC1 [Compound 6] , state whether its pEC50 is at least 6.
[A] YES

====

A collection of compounds and their measured Activation, %
Test system: Klotho gene expression
method.notes: Luciferase reporter assay to evaluate Klotho gene expression changes
Format: cell-based
settings: HEK293 cells/pKlotho_Luc, overnight incubation, luciferase luminescence
Please state the value followed by its unit.

Solved cases below.
# structure.notation, Activation, %
rows = [
    ("CC1(CNc2ncnc3c2ncn3C2CC2)CCCC1", "89%"),
    ("c1nc(NCC2CCCCC2)c2ncn(C3CC3)c2n1", "89%"),
    ("CC(C)CCNc1ncnc2c1ncn2C1CC1", "77%"),
]

Next, consider the following compound.
[Q] # return Activation, % of C1=C(CCNc2ncnc3[nH]ccc23)CCCCC1 (system: Klotho gene expression)
[A] 94%

====

A collection of compounds and their measured EC50
System: Klotho gene expression
method.notes: Luciferase reporter assay to evaluate Klotho gene expression changes
Assay type: cell-based
settings: Homo sapiens, HEK293, HEK293 cells/pKlotho_Luc, overnight incubation, luciferase luminescence
Report only the number, with the unit nM understood.

Solved cases below.
# compound, study.target, scale.unit, assay.result
records = [
    ("c1nc(NCCC2CCCCC2)c2ncn(C3CC3)c2n1", "Klotho gene expression", "nM", 1100),
    ("Cc1cc2c(NCCC3=CCCCC3)ncnc2s1", "Klotho gene expression", "nM", 680),
    ("C1=C(CCNc2ncnc3scnc23)CCCCC1", "Klotho gene expression", "nM", 920),
]

[Q] State, in one line, measured EC50 of C1=C(CCNc2ncnc3c2cnn3-c2ccccc2)CCCCC1
[A] 770

[Q] State, in one line, measured EC50 of C1=C(CCNc2ncnc3sccc23)CCCC1
[A] 850

[Q] State, in one line, measured EC50 of CCn1ncc2c(NCCC3CC=CCC3)ncnc21 (stereo not drawn)
[A] 920

[Q] State, in one line, measured EC50 of FC1(CNc2ncnc3c2ncn3C2CC2)CCCCC1
[A] 900

[Q] State, in one line, measured EC50 of C1=C(CCNc2ncnc3scnc23)CCCC1
[A] 1100

[Q] State, in one line, measured EC50 of C1=C(CCNc2ncnc3ccsc23)CCCCC1
[A] 880
